Below, each entry is listed with its recorded cell viability (log2).
System: A673/TR/shEF
Test: cell viability (LOESS-normalised, relative to median of negative controls) (log2 ratio); higher = more viable cells (less compound effect), active = hit call of the paper (over 3 MAD below the median)
Conditions: 0.25 µM; library screen: screen1; EWS-FLI1 expression: high (no doxycycline); treatment time: 72 h
Hit rate of the full screen: of about 3,200 compounds, about 300 (9.4%) showed activity. The sample holds actives, similar compounds and a random draw of the others, so the mix is not that of the screen.
Number only, no unit.

See these solved cases before continuing.
CC(=O)O[C@H]1CC[C@]2(C=O)C3CC[C@]4(C)[C@@H](C5=CC(=O)OC5)CC[C@]4(O)C3CC[C@]2(O)C1 (stereo not given in full): 0.0163
O=P1(N(CCCl)CCCl)NCCCO1 (stereo not given): 0.11
CC(=O)O[C@H]1CC[C@@]2(C)C(=CCC3C2CC[C@]2(C)C(=O)CCC32)C1 (stereo not given in full): 0.0955

// query cell viability (log2) value for entry C[C@]12CC[C@H]3[C@@H](CC[C@]4(O)C[C@@H](O)CC[C@]34C=O)[C@@]1(O)CC[C@@H]2C1=CC(=O)OC1
0.0251

Continue with CC(=O)OC1CCC23C(=O)OC45CCC(C6=CC(=O)OC6)C4(C)CCC2C5CCC3(O)C1 (stereo not given)
-0.0349

---

Tested on: A673/TR/shEF
Experiment: cell viability (LOESS-normalised, relative to median of negative controls) (log2 ratio); higher = more viable cells (less compound effect), active = hit call of the paper (over 3 MAD below the median)
Conditions: 2.5 µM; library screen: screen1; EWS-FLI1 expression: high (no doxycycline); treatment time: 72 h
Hit rate of the full screen: of about 3,200 compounds, about 300 (9.4%) showed activity. This excerpt belongs to a sample that is enriched for actives.
assayReadout: cell viability (log2)
Number only, no unit.

COc1ccc(C(=O)OC2CCC3(C)C4CCC5[C@]6(O)C[C@H](O)[C@@]7(O)C(CN8CC(C)CCC8[C@@]7(C)O)[C@]6(O)C[C@@]53O[C@]24O)cc1OC (some centres undefined): 0.0896
C=C(C)[C@H]1Cc2c(ccc3c2O[C@@H]2COc4cc(OC)c(OC)cc4[C@@H]2C3=O)O1: -2.87
CC[C@H]1CN2CC[C@H]1C[C@@H]2[C@@H](O)c1ccnc2ccc(OC)cc12: 0.133
CN=C1CN(O)C(c2ccccc2)=c2cc(Cl)ccc2=N1: 0.0997
C[C@]12CC[C@H]3[C@@H](CC[C@]4(O)C[C@@H](O)CC[C@]34C=O)[C@@]1(O)CC[C@@H]2C1=CC(=O)OC1: -1.21
C[C@@H]1C(=O)O[C@H]2[C@H]1CC[C@@]1(C)C=CC(=O)[C@@]3(C)O[C@@]213: 0.0354

// query cell viability (log2) value for entry COc1ccc([C@H]2Oc3c(I)c(OC)cc(OC)c3C[C@@H]2O)cc1OC
0.0859

Continue with CC(=O)O[C@H]1CC[C@@]2(C)C(=CCC3C2CC[C@]2(C)C(=O)CCC32)C1 (some centres undefined)
0.042

Continue with N#C/C(=C\c1cccc(O)c1)C(=O)O
0.0856

Continue with CC(C)N1C(=O)c2ccccc2NS1(=O)=O
0.0391

Continue with CCOP(=S)(OCC)SCn1c(=O)oc2cc(Cl)ccc21
0.166

Source: the supplement of paper PMC6089552
